- SYSTEM TESTED: T1, hDEP1 Peptide #4 (human, also: conjugated to BSA)
- T1 construct: also called hDEP1 Peptide #4/BSA
- T1 peptide: ADVLKYTYEDFKKGASDT
- PROTOCOL SUMMARY: ELISA, soluble scFv produced in microtiter plate
Ends that are not written are not given here.

[
  {
    "BINDER": "5738-10-R4A-F12 (scFv, V domains shown, anti-hDEP1 scFv, rat 10 library, format VH/VL-6xHis-Flag) VH: EVQLQQSGVELAKPGSSVKISCKASGYTFTSDSISWIKQTTGQGLEYIGYIHPGSGVTNYNEKFKGKATLTVDKSSSTAFMQLSSLTPDDSAIYYCARYFDYWGQGVMVTVSS VL: DILMTQSPSSMSVSLGDTVTITCRASQDVGIYVNWFQQKPGKSPRRMIHRATNLADGVPSRFSGSRSGSDYSLTISSLESEDVADYHCLQYDEYPPTFGSGTKLEIK",
    "binding result": "binds"
  },
  {
    "BINDER": "5738-10-R4A-E7 (scFv, V domains shown, anti-hDEP1 scFv, rat 10 library, format VH/VL-6xHis-Flag) VH: QVQLKQSGVELAKPGSSVKISCKASGYTFTSDSISWIKQTTGQGLEYIGYIHPGSGVTNYNEKFKGKATLTVDKSSSTAFMQLSSLTPDDSAIYYCARYFDYWGQGVMVTVSS VL: DILMTQSPSSMSVSLGDTVTITCRASQDVGIYVNWFQQIPGKSPRRLIYRATNLADGVPSRFSGSRSGSDYSLTIASLESEDVADYHCLQYDEFPPTFGSGTKLEIK",
    "binding result": "binds"
  },
  {
    "BINDER": "5738-10-R4A-E9 (scFv, V domains shown, anti-hDEP1 scFv, rat 10 library, format VH/VL-6xHis-Flag) VH: QVQLKQSGAELAKPGSSVKISCKASGYTFTSYYISWIKQTTGQGLEYIGYIHPGSGVTNYNEKFKGKATLTVDKSSSTAFMQLSSLTPDDSAIYYCARYFDYWGQGVMVTVSS VL: DILMTQSPSSMSVSQGDTVTITCRASQDVGIYVNWFQQKPGKSPRRMIHRATNLADGVPSRFSGSRSGSDYSLTITSLESEDVADYHCLQYDEYPPTFGSGTNLEIK",
    "binding result": "binds"
  }
]

Each recorded value in this set is attributed to patent US20240009242A1.
